meta.source: PubChem BioAssay AID588856

Test: qHTS for Inhibitors of TGF-b: Cytotox Counterscreen
Details: HepG2 CAGA-GFP viability, ATP luminescence, 18 h; series mostly up to 46.1 µM
The whole screen tested about 410,000 compounds, of which about 3,100 (0.76%) were called active. Calls follow the shape of the dose curve; as a rule, active = well fitted cell-killing curve with a large enough effect; inactive = no such curve, though single readings can be large or run the other way. For the sample, actives were picked, then their nearest neighbours and some compounds at random.
Select the correct class. Options are True (active), False (inactive) and nothing else.

Look over these answered cases.
>>> class_label("O=[N+]([O-])c1ccc(/C=C/c2ccc3cccnc3c2)cc1")
"False"
>>> class_label("O=C(Nc1ccccc1C(F)(F)F)c1nc(S(=O)(=O)Cc2ccccc2F)ncc1Cl")
"False"
>>> class_label("O=C1/C(=C\\c2ccc([N+](=O)[O-])cc2)CS(=O)(=O)C/C1=C/c1ccc([N+](=O)[O-])cc1")
"True"
>>> class_label("Cc1ccc(NC(=O)c2nc(S(=O)(=O)Cc3cccc(C)c3)ncc2Cl)cc1")
"True"
>>> class_label("Cc1ccc(CCNC(=O)c2ccc(CS(=O)(=O)Cc3cccc(C)c3)o2)cc1")
"False"

Field: next compound
Fill in: this test's call for COC(=O)c1cc(S(=O)(=O)N2CCN(c3cc(Cl)ccc3C)CC2)c[nH]1 is ___
False

---

Assay: qHTS for Inhibitors of TGF-b: Cytotox Counterscreen
Settings: HepG2 CAGA-GFP viability, ATP luminescence, 18 h; series mostly up to 46.1 µM
The campaign covered roughly 410,000 compounds. About 3,100 (0.76%) were called active. Calls follow the shape of the dose curve; as a rule, active = well fitted cell-killing curve with a large enough effect; inactive = no such curve, though single readings can be large or run the other way. Shown is part of a subset that was picked to be rich in actives.
The reply should be one of these categories: Yes (active), No (inactive)

>>> class_label("O=C(CC(O)(C(F)(F)F)C(F)(F)F)Nc1ccc(Cl)c(Cl)c1")
"Yes"
>>> class_label("COC(=O)c1scc(-c2ccccc2)c1S(=O)(=O)Nc1ccccc1")
"No"

Here's the next entry for you.
Just curious, what result did Cc1ccc(-c2nn(CCC(=O)Nc3ccc(Cl)c(Cl)c3)c(=O)c3ccccc23)cc1 get here?
No

---

Assay: qHTS for Inhibitors of TGF-b: Cytotox Counterscreen
Settings: HepG2 CAGA-GFP viability, ATP luminescence, 18 h; series mostly up to 46.1 µM
Hit rate of the full screen: of about 410,000 compounds, about 3,100 (0.76%) were called active. Calls follow the shape of the dose curve; as a rule, active = well fitted cell-killing curve with a large enough effect; inactive = no such curve, though single readings can be large or run the other way. The sample holds actives, similar compounds and a random draw of the others, so the mix is not that of the screen.
Pick one and only one: active, inactive

Previously resolved entries follow.
>>> class_label("COc1ccc(CCNC(=O)c2cnc3sc(N4CCCCCC4)nn3c2=O)cc1OC")
"inactive"
>>> class_label("CCOc1ccc(OCC)c(NS(=O)(=O)c2ccc3[nH]c(=O)ccc3c2)c1")
"inactive"
>>> class_label("CC(=O)OC1=C(C(C)=O)N(Cc2ccccc2)S(=O)(=O)c2ccccc21")
"inactive"
>>> class_label("COc1ccc(CNC(=O)c2cc3c(=O)[nH]c4ccc(C)cc4c3s2)c(OC)c1")
"inactive"
>>> class_label("COc1ccc(C(CCN2CCOCC2)c2c(OC)cc(OC)c3c2OC(=O)CC3c2ccc(OC)cc2)cc1 (centres undefined)")
"inactive"

Which result was noted for this compound in the test: O=C(C[n+]1ccncc1)c1ccc2c(c1)CCCC2
inactive

Test call for this compound, please: Cc1ccc(/C=N/NC(=O)COc2ccccc2-c2ccccc2)cc1
active

Assay outcome for CCOC(=O)c1c(S(=O)(=O)N2CCC(C(=O)NCc3ccccc3OC)CC2)c(C)n(C)c1C : what was it?
inactive
